- assay-system: 5-hydroxytryptamine receptor 1A (Homo sapiens)
pIC50: −log10 of the molar value.
parameter-measured: pIC50

Record excerpt, results attached:
smiles: COc1cc(N2CCN(C3CCN(c4ccc(F)c5cc(C(F)(F)F)cnc45)CC3)CC2)c2ncccc2c1
measured: 7.82
//
smiles: COc1cc(N2CCN(C3CCN(c4ccc(F)c5cccnc45)CC3)CC2)c2ncccc2c1
measured: 8.57
//
smiles: COc1cc(N2CCN(C3CCN(c4cccc5ccc(C)nc45)CC3)CC2)c2ncccc2c1
measured: 7.33
//
smiles: COc1cc(N2CCN(C3CCN(c4cccc5c(C)cc(C)nc45)CC3)CC2)c2ncccc2c1
measured: 8.32
//
smiles: COc1cc(N2CCN(C3CCN(c4ccc(F)c5cc(F)cnc45)CC3)CC2)c2ncccc2c1
measured: 7.70

I: COc1cc(N2CCN(C3CCN(c4cccc5cc(C(F)(F)F)cnc45)CC3)CC2)c2ncccc2c1
II: COc1cc(N2CCN(C3CCN(c4cccc5c(C)ccnc45)CC3)CC2)c2ncccc2c1
Q: Between item I and item II , which reported pIC50 is smaller? Which one? Tell me its label.
Result: I
(I: 7.52, II: 8.85)

###

- assay-system: 5-hydroxytryptamine receptor 1A (Homo sapiens, UniProt P08908)
- Sequence (P08908 whole entry): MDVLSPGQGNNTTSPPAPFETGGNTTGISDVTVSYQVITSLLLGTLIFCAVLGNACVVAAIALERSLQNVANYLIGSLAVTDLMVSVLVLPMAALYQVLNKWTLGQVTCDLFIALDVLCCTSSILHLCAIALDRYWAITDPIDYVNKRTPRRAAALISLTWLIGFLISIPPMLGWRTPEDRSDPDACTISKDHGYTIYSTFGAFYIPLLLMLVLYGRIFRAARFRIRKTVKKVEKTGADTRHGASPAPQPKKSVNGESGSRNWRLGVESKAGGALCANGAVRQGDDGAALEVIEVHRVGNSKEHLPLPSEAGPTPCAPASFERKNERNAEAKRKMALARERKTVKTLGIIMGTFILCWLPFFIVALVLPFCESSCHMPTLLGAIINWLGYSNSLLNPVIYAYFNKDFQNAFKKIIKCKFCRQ
- experimental-conditions: cho
- Description: Displacement of [3H]8-OH-DPAT from human 5HT1A receptor expressed in CHO cells
parameter-measured: Ki (nM)
Supply the numeric figure in nM, leaving out any unit text.

Record summary for COc1cc(N2CCN(C3CCN(c4ccc(F)c5cccnc45)CC3)CC2)c2ncccc2c1 : reported Ki = 0.4

###

- assay-protocol: in vitro
- experimental-conditions: rat, liver microsomes
- Description: Half life in rat liver microsomes at 1 uM after 20 mins
parameter-measured: half-life at 20 min, 1 µM (min)

smiles: COc1cc(N2CCN(C3CCN(c4cccc5cc(C)cnc45)CC3)CC2)c2ncccc2c1
parameter-measured: half-life at 20 min, 1 µM
measured: 2
//
smiles: COc1cc(N2CCN(C3CCN(c4ccc(F)c5c(C)cc(C)nc45)CC3)CC2)c2ncccc2c1
parameter-measured: half-life at 20 min, 1 µM
measured: 3
//
smiles: COc1cc(N2CCN(C3CCN(c4cccc5c(C)cc(C)nc45)CC3)CC2)c2ncccc2c1
parameter-measured: half-life at 20 min, 1 µM
measured: 4

a: COc1cc(N2CCN(C3CCN(c4cccc5cccnc45)CC3)CC2)c2ncccc2c1
b: COc1cc(N2CCN(C3CCN(c4cccc5c(OC)cc(C(F)(F)F)nc45)CC3)CC2)c2ncccc2c1
Q: Looking at recorded values for half-life at 20 min, 1 µM, does a or b come in lower? Give the chosen item's label as your response.
Result: a

###

- assay-protocol: in vitro
- experimental-conditions: human, liver microsomes
- Description: Half life in human liver microsomes at 1 uM after 20 mins
parameter-measured: half-life at 20 min, 1 µM (min)

smiles: COc1cc(N2CCN(C3CCN(c4cccc5c(OC)cc(C(F)(F)F)nc45)CC3)CC2)c2ncccc2c1
unit-info: min
half-life at 20 min, 1 µM: 13
//
smiles: COc1cc(N2CCN(C3CCN(c4ccc(F)c5cc(C(F)(F)F)cnc45)CC3)CC2)c2ncccc2c1
unit-info: min
half-life at 20 min, 1 µM: 27
//
smiles: COc1cc(N2CCN(C3CCN(c4c(F)ccc5cccnc45)CC3)CC2)c2ncccc2c1
unit-info: min
half-life at 20 min, 1 µM: 3
//
smiles: COc1cc(N2CCN(C3CCN(c4cccc5c(C)ccnc45)CC3)CC2)c2ncccc2c1
unit-info: min
half-life at 20 min, 1 µM: 2
//
smiles: COc1cc(N2CCN(C3CCN(c4cccc5cccnc45)CC3)CC2)c2ncccc2c1
unit-info: min
half-life at 20 min, 1 µM: 3
//
smiles: COc1cc(N2CCN(C3CCN(c4cccc5ccc(C)nc45)CC3)CC2)c2ncccc2c1
unit-info: min
half-life at 20 min, 1 µM: 3
//
smiles: COc1cc(N2CCN(C3CCN(c4ccc(F)c5cccnc45)CC3)CC2)c2ncccc2c1
unit-info: min
half-life at 20 min, 1 µM: 6
//
smiles: COc1cc(N2CCN(C3CCN(c4cccc5ccc(C(F)(F)F)nc45)CC3)CC2)c2ncccc2c1
unit-info: min
half-life at 20 min, 1 µM: 3

a: COc1cc(N2CCN(C3CCN(c4ccc(F)c5c(OC)cc(C(F)(F)F)nc45)CC3)CC2)c2ncccc2c1
b: COc1cc(N2CCN(C3CCN(c4cccc5cc(C(F)(F)F)cnc45)CC3)CC2)c2ncccc2c1
Q: Lower half-life at 20 min, 1 µM: a or b ? Record your answer as the label of the chosen record.
Result: b

P: COc1cc(N2CCN(C3CCN(c4ccc(F)c5ccc(C(F)(F)F)nc45)CC3)CC2)c2ncccc2c1
Q: COc1cc(N2CCN(C3CCN(c4cc(Br)cc5cccnc45)CC3)CC2)c2ncccc2c1
Q: Between P and Q , whose measured half-life at 20 min, 1 µM reads higher? Provide the label of your selected option as the answer.
Result: P

I: COc1cc(N2CCN(C3CCN(c4cccc5cc(F)cnc45)CC3)CC2)c2ncccc2c1
II: COc1cc(N2CCN(C3CCN(c4ccc(F)c5c(C)cc(C)nc45)CC3)CC2)c2ncccc2c1
Q: Form: Entry with minimum half-life at 20 min, 1 µM (choose one): I / II Kindly give the label for the entry you pick.
Result: I
(I: 2 min, II: 3 min)
